# TARGET_UNDER_TEST: TTR in human blood plasma (Homo sapiens)
# Construct: from tissue; host or cells: human blood plasma
# TEST_PROTOCOL: plasma TTR binding selectivity, antibody capture method
# CONDITION_NOTES: inhibitor 10.8 μM, 24 h, 37° C.
OBSERVED_PROPERTY: binding selectivity to TTR in human blood plasma

[[record]]
smiles_code = "O=C(O)c1cccc(-c2ccc(C(=O)O)c3oc4c(C(=O)O)cccc4c23)c1"
result = "modest"

[[record]]
smiles_code = "O=C(O)c1cccc(Nc2ccc(C(=O)O)c3oc4c(C(=O)O)cccc4c23)c1"
result = "modest"

